- test protocol: NCI Yeast Anticancer Drug Screen. Data for the bub3 strain (AID 167)
- setup conditions: S. cerevisiae bub3 mutant strain, at 5.0 µM (retest, dose inferred, filed as 0.5), stronger effect = higher value
This is part of a sample that, as a whole, favours compounds with a hit. Of some 79,000 tested, about 15% had one in any assay.
observable: growth inhibition (%)

1) N=C(N)c1ccc(-c2ccc(-c3ccc(C(=N)N)cc3)o2)cc1 = 4
2) O=C1C(=C2C(=O)c3ccccc3[N+]2=O)N([O-])c2ccccc21 = -6
3) CCN1CCC(O)(/C=C/c2ccccc2C)C(C(=O)/C=C/c2ccccc2C)C1 (centres undefined) = 8
4) O=C1Nc2ccccc2C(=O)C1(Cc1ccccc1)C(=O)c1ccccc1 (centres undefined) = 11
5) CCOC(=O)CN1CCCC(C(=O)CC2(O)C3(Cl)C4(Cl)C5(Cl)C(Cl)(Cl)C6(Cl)C4(Cl)C2(Cl)C6(Cl)C53Cl)C1 (centres undefined) = 59
6) Oc1ccc(N=Nc2ccccc2)c(O)c1.Oc1ccc(N=Nc2ccccc2)c(O)c1.[Cu] = 15
7) CSC(=Nc1ccc(Cl)cc1)N1CC=Cc2ccccc21 = 49
8) O=C(O)c1cc(C(=O)O)c(C(=O)O)cc1C(=O)O.[NH-]C1CCCC1.[NH-]C1CCCC1.[NH-]C1CCCC1.[NH-]C1CCCC1.[Pt+2].[Pt+2] = -1
9) COC(=O)C(=O)CC(=O)c1cccc(Cl)c1 = 13

###

- test protocol: NCI Yeast Anticancer Drug Screen. Data for the bub3 strain (AID 167)
- setup conditions: S. cerevisiae bub3 mutant strain, at 5.0 µM (retest, dose inferred, filed as 0.5), stronger effect = higher value
Compounds without any hit were thinned out: in the full panel of roughly 79,000, 15% have a hit.
observable: growth inhibition (%)

1. COc1ccc2oc(-c3ccc(OC)c(OC)c3OC)cc(=O)c2c1 = -15
2. O=C1C(Cl)=C(Nc2ccc(S(=O)(=O)O)cc2)C(=O)c2ccccc21 = 74
3. NC(=S)c1cccc(OCCCOc2ccccc2)c1 = 6
4. CN(C)C(=S)N1C(=S)N(c2ccccc2)C(=Nc2ccccc2)C1=Nc1ccccc1 = -13
5. O=C(/C=C/c1ccc2c(c1)OCO2)c1ccc(O)cc1 = -32
6. C=C1CC[C@@H](Br)C(C)(C)[C@]12CCC(C)(O)C(Cl)C2 (stereo partly specified) = 6
7. COc1ccc(C2COc3c(ccc(O)c3O)C2)cc1OC (stereo unspecified) = 0
8. COc1ccc(-c2c(COC(C)=O)c(COC(C)=O)c3n2CCC3)cc1 = -6
9. C=C(CS(=O)(=O)c1ccccc1)[P+](c1ccccc1)(c1ccccc1)c1ccccc1 = -3
10. CCOC(=O)Nc1cc(NC(C)/C(=N/O)c2ccccc2)c([N+](=O)[O-])c(N)n1 (stereo unspecified) = -10
11. COc1cc(C2OC(=O)c3ccccc3S2)ccc1O (stereo unspecified) = 5

###

- test protocol: NCI Yeast Anticancer Drug Screen. Data for the cln2 rad14 strain (AID 165);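 note: 0% = growth equal to vehicle treated cultures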
- setup conditions: S. cerevisiae cln2 rad14 strain, at 5.0 µM (retest, dose inferred, filed as 0.5)
About 79,000 compounds went through this panel and 15% of them were active in at least one assay; those are over-represented in the sample as a whole. Active and inactive are the calls of the source. Rule as the data show it: active = growth inhibition above about 70%; inactive = the rest.
Labels: active, inactive

1) CCCCCCCCCc1ccc(O)c(Cl)c1 = inactive
2) O=C(Cn1nnc2ccccc21)N1CCN(c2ccccc2)CC1 = inactive
3) NCCCCC(N)C(=O)Nc1ccc2ccccc2c1 (configuration not stated) = inactive
4) CCC(N)(CO)CO = inactive
5) COc1ccc(N2CCN(CC(O)COc3cc4c(c5c3CCCC5)CCCC4)CC2)cc1 (configuration not stated) = inactive
6) COC(=O)c1ccc(SCCC(=O)CCl)cc1 = inactive
7) Oc1c(Cl)cc(C(c2cc(Cl)c(O)c(Cl)c2)C(Cl)(Cl)Cl)cc1Cl = active
8) N#Cc1cc2c(cc1Cl)Sc1nccn1S2(=O)=O = inactive
9) CC1=NN(C(=O)c2ccncc2)C(=O)C1N=Nc1ccc(C)c([N+](=O)[O-])c1 (configuration not stated) = inactive
10) S=C(C#Cc1ccccc1)Nc1ccccc1 = inactive
11) COc1ccc(/C(O)=C/c2nc3ccc([N+](=O)[O-])cc3[nH]c2=O)cc1 = inactive
12) Nc1nc(=O)n(C2OC(CO)C(O)C2O)cc1[N+](=O)[O-] (configuration not stated) = inactive

###

- test protocol: NCI Yeast Anticancer Drug Screen. Data for the sgs1 mgt1 strain (AID 161);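 note: 0% = growth of cultures given vehicle only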
- setup conditions: S. cerevisiae sgs1 mgt1 strain, at 50.0 µM
This is part of a sample that, as a whole, favours compounds with a hit. Of some 79,000 tested, about 15% had one in any assay. Active and inactive are the calls of the source. Rule as the data show it: active = growth inhibition above about 70%; inactive = the rest.
Labels: label 1 (active), label 0 (inactive)

1) CCSC(=S)NC(=O)c1ccccc1 = label 1
2) CCc1nc(N)nc(N)c1-c1ccc(N2CCCCC2)c([N+](=O)[O-])c1 = label 0
3) ClCc1ccc2ccc3ccc(CCl)nc3c2n1 = label 1
4) CC(=O)OC1=C(Br)CCc2ccccc21 = label 1
5) CCCCN(CCCC)CCC(O)c1cc2c(c3ccccc13)CCCC2 (configuration not stated) = label 1
6) CCN(CC)c1ccc(/C=C2/C[N+](C)(C)C/C(=C/c3ccc(N(CC)CC)cc3)C2=O)cc1 = label 1
7) CS(=O)(=O)OCCN(CCOS(C)(=O)=O)c1ccc(C=Nc2ccc3oc(=O)ccc3c2)cc1 = label 0
8) CC1=C(C(=O)Nc2ccccc2C)C(c2ccccc2F)C(C(=O)Nc2ccccc2C)=C(C)N1 = label 0
9) Clc1ccc(SSN2CCCCC2)cc1 = label 1
10) Cc1cc(Cl)ccc1Nc1sc(C(=O)c2cc3cc(Cl)ccc3o2)c(N)c1C#N = label 0
11) Nc1ccc(S(=O)(=O)C23CC4CC(CC(C4)C2)C3)cc1 = label 1
12) CN(C)CCCC1(c2ccccc2)SC(C)(C)c2ccc(Cl)cc21 (configuration not stated) = label 0
13) O=C(NNc1nc(-c2ccccc2)cs1)C(F)(F)F = label 1
14) CCOC(=O)C1SC(=Nc2ccc(Cl)cc2C)N=C1C (configuration not stated) = label 1
15) ClC(Cl)(Cl)C(c1ccccc1)c1ccccc1 = label 1
16) CCCCCCCCCCCCCCSC(=N)N = label 0
17) C=C1C[C@H](O)[C@H]2C(C[Se]c3ccccc3)C(=O)O[C@@H]2[C@H]2[C@H](C)C(O)C[C@@H]12 (some centres not stated) = label 0
18) O=C(Nc1c(Cl)cccc1Cl)Oc1c(Br)cc(Br)cc1Br = label 1
19) Cc1cc(C)c(CCCC(=O)c2c(C)cc(C)cc2C)c(C)c1 = label 0
20) COC1OC(CI)C(OC(c2ccccc2)(c2ccccc2)c2ccccc2)C(OC(c2ccccc2)(c2ccccc2)c2ccccc2)C1OC(c1ccccc1)(c1ccccc1)c1ccccc1 (configuration not stated) = label 1
21) CC(=O)N(C1=C(Cl)C(=O)c2ccccc2C1=O)c1ccc([N+](=O)[O-])cc1 = label 1
22) [Br][Pt+2][Br].[NH-]c1cccc(I)c1.[NH-]c1cccc(I)c1 = label 0

###

Listed here are compounds together with their documented growth inhibition.
- test protocol: NCI Yeast Anticancer Drug Screen. Data for the mec2-1 strain (AID 157)
- setup conditions: S. cerevisiae mec2-1 strain, at 50.0 µM, stronger effect = higher value
Compounds without any hit were thinned out: in the full panel of roughly 79,000, 15% have a hit.
observable: growth inhibition (%)

1) COc1cc(C2c3cc4c(cc3OC(NNc3ccccc3)C2C)OCO4)cc(OC)c1O (stereo unspecified) = 98.7
2) O=C(c1ccccc1)c1cn(/N=C\c2ccccc2)c(=O)nc1-c1ccccc1 = 80.2
3) O=C(O)c1cc2ccc3cccc4ccc(c1)c2c34 = 70.7
4) CNc1c(C(=O)Nc2ccccc2)c(=O)n(C)c(=O)n1C = 81
5) CC(=O)Nc1ccc(NC(=S)Nc2ccc(NC(C)=O)cc2)cc1 = 15
6) OC(CCN1CCCCC1)(Cc1ccccc1)c1cccc(Cl)c1 (stereo unspecified) = 26.6

###

Listed here are compounds together with their documented growth inhibition.
- test protocol: NCI Yeast Anticancer Drug Screen. Data for the rad50 strain (AID 155);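 note: 0% = growth of vehicle-only cultures of the same strain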
- setup conditions: S. cerevisiae rad50 strain growth inhibition; at 5.0 µM (retest, dose inferred, filed as 0.5); stronger effect = higher value
The panel holds about 79,000 compounds, 15% with a hit somewhere; the sample as a whole holds those more often.
observable: growth inhibition (%)

1. CCCCCOC(=O)C(C)SC#N (configuration not stated) = 12
2. CC(C)C(=O)c1ccc([N+](=O)[O-])o1 = 2
3. CCCCc1ccc(Nc2nc(N)c3[nH]cnc3n2)cc1 = 19
4. N#Cc1ccc(OC(=O)Nc2c(Cl)cccc2Cl)cc1 = 46
5. CN=C(N)N/N=C(\C)c1ccc2c(c1)Cc1cc(Cl)ccc1-2 = 34
6. Nc1ccc2nc(N)sc2c1 = -5
7. CN(C)C=C1C(Cl)=C(C=O)CC(C=O)=C1Cl = 2
8. CN1C=C(C#N)CCC1Sc1ccc(Cl)cc1 (configuration not stated) = -7
9. O=C1c2cc(O)ccc2C(=O)c2c1ccc(O)c2O = 11
10. Cc1ccc(C(=O)/C=C/c2ccco2)c(C)c1 = -9
11. COC(=O)c1ccc(SCC(=O)c2ccc([N+](=O)[O-])o2)cc1 = 4
12. COc1ccc2c(c1)CCC1C2CCC2(C)C(=O)C(SC3=NC=NC4=NC=NC43)CC12 (configuration not stated) = 24
